Test: NCI Yeast Anticancer Drug Screen. Data for the bub3 strain (AID 167)
Conditions: S. cerevisiae bub3 mutant strain, at 5.0 µM (retest, dose inferred, filed as 0.5), hits give high values
About 79,000 compounds went through this panel and 15% of them were active in at least one assay; those are over-represented in the sample as a whole.
MEASURE: growth inhibition (%)
Numbers only, in %.

MOLECULE	U	growth inhibition
O=C1c2ccccc2C(=O)c2c1ccc(O)c2O.[Cu]	%	86
CCOC(=O)C(=Cc1ccccc1Br)C(=O)OCC	%	26

# batch size: 2; output growth inhibition per entry
1. CN(C)CCC(=O)[C@@]1(O)CC[C@H]2[C@@H]3CC=C4C[C@@H](O)CC[C@]4(C)[C@H]3CC[C@@]21C
2. N#CC(=C1C=CC(=NO)C=C1)c1cccc2ccccc12

Key:
[-1, 5]

# batch size: 7; output growth inhibition per entry
1. CCCCCCCCCCCCCCCC(=O)N1CC[N+](C)(C)CC1
2. CN(Cc1cc(Br)cc(Br)c1O)Cc1c[nH]c2ccccc12
3. CCCCCCCCN/N=C(/C)CCCCCO
4. O=C(O)C(O)C(O)C(OC1OC(CO)C(O)C(O)C1O)C(O)CO.[Br][Pt].[NH-]C1CCCCC1[NH-] (stereo unspecified)
5. Cc1cc(C)c(S(=O)(=O)n2ccnc2)c(C)c1
6. COc1ccc(CC2=CC(=O)C(=O)C=C2C)cc1
7. O=[N+]([O-])c1ccccc1C1CN=NN1c1ccccc1 (stereo unspecified)

Key:
1: 16; 2: -4; 3: 1; 4: 79; 5: -8; 6: -2; 7: -3

# batch size: 6; output growth inhibition per entry
1. CC12C=C3CC(OC(=O)c4ccccc4)CCC3(O1)c1ccccc12 (stereo unspecified)
2. CCCCCCCCCCC(C(=O)OCCCC)P(=O)(OCCCC)OCCCC (stereo unspecified)
3. Nc1ccc2c(c1)C(=O)c1ccccc1-2
4. CC(=O)CC1(O)C(=O)Nc2ccc(Br)cc21 (stereo unspecified)
5. COC(=O)C12OCC34C(CC5C(C)C6=CC(=O)OC6=CC5(C)C3C(O)C1O)OC(=O)C(O)C24 (stereo unspecified)
6. COc1ccccc1C1c2cc3c(cc2OC2(OC)COC(=O)C12)OCO3 (stereo unspecified)

Key:
[4, 4, 2, 6, -2, 32]

---

I'd appreciate it if you could supply growth inhibition values for the items below.
Test: NCI Yeast Anticancer Drug Screen. Data for the cln2 rad14 strain (AID 165);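 note: 0% = growth equal to vehicle treated cultures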
Details: S. cerevisiae cln2 rad14 strain, at 5.0 µM (retest, dose inferred, filed as 0.5), hits give high values
The panel holds about 79,000 compounds, 15% with a hit somewhere; the sample as a whole holds those more often.
Numbers only, in %.

Sample records with growth inhibition:
COMPOUND	U	growth inhibition
COC(=O)C(=O)/C=C(/O)c1ccc(OC)cc1	%	-12
COc1ccc2c(c1)[n+]([O-])c(S(=O)(=O)c1ccc(C)cc1)c(N)[n+]2[O-]	%	16
O=[N+]([O-])c1cccc2c[n+](Cc3ccccc3)ccc12	%	-13
COc1ccc(C2COc3c(ccc(O)c3O)C2)cc1OC (centres undefined)	%	0
CC(c1ccccc1C(=O)O)c1cccc2ccccc12 (centres undefined)	%	6

# batch size: 3; output growth inhibition per entry
1. COc1ccc2nc3cc([N+](=O)[O-])ccc3c(NCCO)c2c1
2. Cc1cc(C(O)(C(F)(F)F)C(F)(F)F)cc(C(O)(C(F)(F)F)C(F)(F)F)c1
3. COc1ccc2oc(-c3ccc(OC)c(OC)c3OC)cc(=O)c2c1

Key:
[-6, -4, -14]

# batch size: 4; output growth inhibition per entry
1. CN(C)CCCC(C#N)(CCCN(C)C)c1ccccc1
2. COC(=O)C1=C(/C=C/C(C)=O)NC(C)=C(C(=O)OC(C)C)C1c1ccccc1Cl (centres undefined)
3. CC12OC1C(=O)c1ccccc1C2=O (centres undefined)
4. CCOC(=O)c1ccc(NC(=O)CCl)cc1

Key:
1: -2; 2: 65; 3: 19; 4: 8

---

Assay: NCI Yeast Anticancer Drug Screen. Data for the bub3 strain (AID 167)
Conditions: S. cerevisiae bub3 mutant strain, at 50.0 µM, hits give high values
This is part of a sample that, as a whole, favours compounds with a hit. Of some 79,000 tested, about 15% had one in any assay.
Param threshold (40%) applies to growth inhibition; output Fulfilled when value >= threshold, Not fulfilled when value < threshold.

Recorded results for 5 molecules are shown here.
MOLECULE	LABEL
CC(=O)Sc1ccc(Br)cc1	Fulfilled
CN1C=C(C#N)CCC1Sc1ccc(Cl)cc1 (configuration not stated)	Fulfilled
Cc1c(N)nc(C2CC(=O)N2CC(N)C(N)=O)nc1C(=O)NC(C(=O)NC(C)C(O)C(C)C(=O)NC(C(=O)NCCc1nc(-c2nc(C(=O)NCCCNC3CCCC3)cs2)cs1)C(C)O)C(OC1OC(CO)C(O)C(O)C1OC1OC(CO)C(O)C(OC(N)=O)C1O)c1cnc[nH]1 (configuration not stated)	Fulfilled
Clc1ccc(C2=CC(c3ccccc3)N3C(=N[C@H]4CCCC[C@@H]43)N2)cc1 (some centres not stated)	Fulfilled
CN(C)c1ncnc2c1ncn2C	Not fulfilled

Exercise: Is the recorded value of growth inhibition equal to or greater than 40% for this molecule? Cc1nc(Cl)nc(N)c1[N+](=O)[O-]
Key: Not fulfilled

Exercise: Is the recorded value of growth inhibition equal to or greater than 40% for this molecule? O=C(c1ccc([N+](=O)[O-])cc1)C(Br)C(Br)c1ccnc2ccccc12 (configuration not stated)
Key: Fulfilled

Exercise: Is the recorded value of growth inhibition equal to or greater than 40% for this molecule? O=C1c2ccc(O)c(O)c2C(=O)c2cccc(O)c21
Key: Not fulfilled

Exercise: Is the recorded value of growth inhibition equal to or greater than 40% for this molecule? O=[N+]([O-])CC(O)c1ccccc1Cl (configuration not stated)
Key: Fulfilled

Exercise: Is the recorded value of growth inhibition equal to or greater than 40% for this molecule? CCOC(=O)C(=C=C=C(c1ccccc1)c1ccccc1)C(=O)OCC
Key: Not fulfilled

Exercise: Is the recorded value of growth inhibition equal to or greater than 40% for this molecule? CNC(=O)NN(C)C=O
Key: Not fulfilled

Exercise: Is the recorded value of growth inhibition equal to or greater than 40% for this molecule? COc1cc(C(c2cc3c(cc2OC(C)=O)OCO3)C(C(C)=O)C(C)=O)cc(OC)c1OC(C)=O (configuration not stated)
Key: Not fulfilled

---

Assay: NCI Yeast Anticancer Drug Screen. Data for the rad50 strain (AID 155);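 note: 0% = growth of vehicle-only cultures of the same strain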
Settings: S. cerevisiae rad50 strain growth inhibition; at 50.0 µM (retest, dose inferred, filed as 5.0)
The panel holds about 79,000 compounds, 15% with a hit somewhere; the sample as a whole holds those more often. Calls of active or inactive are those of the source. Rule as the data show it: active = growth inhibition above about 70%; inactive = the rest.
Assign a class; possible classes are label 1 = active, label 0 = inactive

COMPOUND	LABEL
C=C(C#N)C(=O)OCC(CC)CC.C=C(C#N)C(=O)OCC(CC)CC.CS(C)=O.CS(C)=O.Nc1c(N=Nc2ccc(-c3ccc(N=Nc4cc(S(=O)(=O)[O-])c5ccccc5c4N)cc3)cc2)cc(S(=O)(=O)[O-])c2ccccc12.[Pt+2]	label 1
CC(=O)OC1=CC2=CCC3C(CCC4(C)C(C(C)=O)CCC34)C2(C)CC1 (stereo unspecified)	label 0
Nc1nccc2c1ncn2C1C=C(CO)C(O)C1O (stereo unspecified)	label 0
CCC(CO)Nc1nc2cc(Cl)ccc2c2ccc(Cl)cc12 (stereo unspecified)	label 1
COc1cc2c(cc1OC)-c1nc(Nc3ccccc3)sc1CC2	label 1
CC(C)c1ccc(C2C3=C(N=C4SCC(=O)N42)C(=O)c2ccccc23)cc1 (stereo unspecified)	label 0

Exercise: Outcome? COC(=O)C1=C(C)NC(C)=C([N+](=O)[O-])C1c1cccc(N=O)c1 (stereo unspecified)
Key: label 0

Exercise: Outcome? c1cc(SSc2ccncc2)ccn1
Key: label 1

Exercise: Outcome? COc1ccc(C(=O)C(CN2CCOCC2)CN2CCOCC2)cc1
Key: label 0

Exercise: Outcome? CCC(=S)N(C)O
Key: label 1

Exercise: Outcome? CC(C)(C)[Si](C)(C)OCC1OC(n2cc(I)c(N)nc2=O)C(O[Si](C)(C)C(C)(C)C)C1O[Si](C)(C)C(C)(C)C (stereo unspecified)
Key: label 1

Exercise: Outcome? O=C1CCCC2c3ccccc3NC12 (stereo unspecified)
Key: label 0

Exercise: Outcome? N#CC(=C1C=CC(=NO)C=C1)c1cccc2ccccc12
Key: label 1

Exercise: Outcome? CSC1NNC2(C(=O)N1)c1ccccc1-c1ccccc12 (stereo unspecified)
Key: label 1

Exercise: Outcome? O=c1c2ccccc2ncn1Cc1ccccc1[N+](=O)[O-]
Key: label 0

Exercise: Outcome? O=C1Nc2ccccc2C(=O)C1(Cc1ccccc1)C(=O)c1ccccc1 (stereo unspecified)
Key: label 0

---

Assay: NCI Yeast Anticancer Drug Screen. Data for the cln2 rad14 strain (AID 165);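 note: 0% = growth equal to vehicle treated cultures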
Details: S. cerevisiae cln2 rad14 strain, at 50.0 µM (retest, dose inferred, filed as 5.0)
About 79,000 compounds went through this panel and 15% of them were active in at least one assay; those are over-represented in the sample as a whole. The source made the active and inactive calls. Cut-off read from the data, not from the text of the source: active = growth inhibition above about 70%; inactive = the rest.
Assign a class; possible classes are active, inactive

Recorded results for 5 molecules are shown here.
MOLECULE	LABEL
CC(C)(C)[Si](C)(C)OCC1OC(n2cc(I)c(N)nc2=O)C(O[Si](C)(C)C(C)(C)C)C1O[Si](C)(C)C(C)(C)C (configuration not stated)	inactive
CCCCCCCCCCCCCCSC(=NCC)NCC	active
c1ccc2c(c1)[nH]c1c[n+]3c(c[n+]12)[nH]c1ccccc13	inactive
COC(=O)C1=C(NC(=O)Nc2ccc(Cl)cc2)OC(C)(C)C1c1ccc(Cl)cc1 (configuration not stated)	active
CN(C(=O)c1ccc(Cl)cc1)C(=S)N1CCN(c2ccccc2)CC1	inactive

Exercise: Outcome? ClC(Cl)=C1C(=C(Cl)Cl)C(Cl)(Cl)C1(Cl)Cl
Key: active

Exercise: Outcome? Oc1c(Br)ccc2cccnc12
Key: active
